SYSTEM: Ubiquitin carboxyl-terminal hydrolase 1 (Homo sapiens) (UniProt O94782)
Sequence (O94782 whole entry, looked up): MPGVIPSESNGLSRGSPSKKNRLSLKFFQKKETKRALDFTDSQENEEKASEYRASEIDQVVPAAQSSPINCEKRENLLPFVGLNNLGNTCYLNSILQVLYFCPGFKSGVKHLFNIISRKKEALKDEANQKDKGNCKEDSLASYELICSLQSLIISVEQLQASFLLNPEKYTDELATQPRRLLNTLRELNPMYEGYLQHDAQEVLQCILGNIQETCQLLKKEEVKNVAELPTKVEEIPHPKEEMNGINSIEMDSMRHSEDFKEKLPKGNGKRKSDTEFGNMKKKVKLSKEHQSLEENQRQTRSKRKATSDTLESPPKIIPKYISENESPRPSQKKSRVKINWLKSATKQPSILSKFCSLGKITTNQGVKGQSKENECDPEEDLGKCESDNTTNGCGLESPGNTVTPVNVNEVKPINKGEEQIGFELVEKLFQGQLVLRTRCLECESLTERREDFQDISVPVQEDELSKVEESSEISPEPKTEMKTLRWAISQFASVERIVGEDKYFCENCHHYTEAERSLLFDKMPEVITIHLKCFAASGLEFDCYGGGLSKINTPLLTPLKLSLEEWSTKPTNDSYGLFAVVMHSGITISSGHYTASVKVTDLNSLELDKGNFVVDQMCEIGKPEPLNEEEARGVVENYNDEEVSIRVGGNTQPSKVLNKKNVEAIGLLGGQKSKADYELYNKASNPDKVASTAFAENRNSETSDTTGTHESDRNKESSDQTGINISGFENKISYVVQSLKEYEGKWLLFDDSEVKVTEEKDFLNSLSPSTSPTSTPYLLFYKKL
METHOD: Inhibitors of USP1/UAF1: Pilot qHTS (AID 504865); further: nearly all actives have a fitted effect of over 35% in size
STUDY CONDITIONS: purified USP1/UAF1, Ub-rhodamine cleavage fluorescence; series mostly up to 54.9 µM
Records with an inconclusive call do not appear. The source made the active and inactive calls. The call rests on the fitted dose curve; in most records, active means well fitted inhibition curve with a large enough effect; inconclusive means small, poorly fitted or top-dose-only effect; inactive means flat fitted curve, though single readings scatter.
Outcomes: label 1 = active, label 0 = inactive

# COMPOUND, GROUP LABEL
rows = [
    ("COCCNc1cc(-c2c(C)noc2C)ncn1", "label 0"),
    ("Cc1cnc(CNc2ncncc2-c2cccnc2)cn1", "label 0"),
    ("C[C@]12CCC(=O)C=C1CC[C@@H]1C2[C@@H](O)C[C@@]2(C)[C@H]1CC[C@]2(O)C(=O)CO (some centres undefined)", "label 0"),
    ("COc1ccccc1-c1cncnc1NCc1cccnc1", "label 0"),
    ("COCCn1c(=O)c(-c2cc(F)cc(F)c2)nc2cnc(N3CCOCC3)nc21", "label 0"),
    ("N#Cc1ccccc1-c1ccc2ncnc(N3CCNCC3)c2c1", "label 0"),
    ("Cc1noc(C)c1-c1ccc2ncnc(NC3CCNCC3)c2c1", "label 0"),
    ("CN1CCN(c2ncc3ncc(=O)n(CCC#N)c3n2)CC1", "label 0"),
    ("CN(C)c1ncc2ncc(=O)n(C3CC3)c2n1", "label 0"),
    ("COc1ccc(-c2nc3cnc(Nc4cccc(OC)c4)nc3n(C[C@H]3CCCO3)c2=O)cc1", "label 0"),
    ("CN1CCN(c2ncc3nc(-c4cccs4)c(=O)n(CCC#N)c3n2)CC1", "label 0"),
    ("COc1ccc(-c2nc3cnc(Nc4ccccc4)nc3n(Cc3cccs3)c2=O)cc1", "label 0"),
    ("O=C(O)C1CCN(c2ncnc3ccc(-c4ccccc4C(F)(F)F)cc23)CC1", "label 0"),
    ("CCNc1ncc2nc(-c3ccc(Cl)cc3)c(=O)n(CCC#N)c2n1", "label 0"),
    ("COc1ccccc1-c1cc(NCc2cccnc2)ncn1", "label 0"),
    ("COc1ncc2nc(-c3ccc(F)cc3)c(=O)n(-c3ccccc3)c2n1", "label 0"),
    ("COC1=C(OC)C(=O)C(C/C=C(\\C)CC/C=C(\\C)CC/C=C(\\C)CC/C=C(/C)CC/C=C(\\C)CC/C=C(\\C)CC/C=C(\\C)CC/C=C(\\C)CC/C=C(\\C)CCC=C(C)C)=C(C)C1=O", "label 0"),
    ("COc1ccc(Oc2ncc3nc(-c4cccs4)c(=O)n(CCC#N)c3n2)cc1", "label 0"),
    ("C=C1CCC2[C@](C)(CO)C(O)CC[C@]2(C)C1C/C=C1/C(=O)OCC1O (some centres undefined)", "label 0"),
    ("CC(=O)NCCNc1nc(-c2ccccc2C(F)(F)F)nc2ccccc12", "label 0"),
    ("COc1cccc(Cn2c(=O)c(-c3cccc(C#N)c3)nc3cnc(N4CCN(C)CC4)nc32)c1", "label 0"),
    ("CN1CCN(c2ncc3nc(-c4ccccc4)c(=O)n(CCc4ccccc4)c3n2)CC1", "label 0"),
    ("O=c1cnc2cnc(N3CCOCC3)nc2n1C1CC1", "label 0"),
    ("COc1cccc(Nc2ncc3nc(C)c(=O)n(C4CC4)c3n2)c1", "label 0"),
    ("O=c1cnc2cnc(Nc3ccccc3)nc2n1Cc1cccs1", "label 0"),
    ("COc1ccc(-c2nc3cnc(N4CCN(C)CC4)nc3n(-c3ccc(OC)cc3)c2=O)cc1", "label 0"),
    ("c1cncc(-c2cncnc2NC2CCNCC2)c1", "label 0"),
    ("COc1cccc(Cn2c(=O)c(-c3cn(C)c4ccccc34)nc3cnc(N4CCNCC4)nc32)c1", "label 1"),
    ("COc1ccccc1CNc1ncnc2ccc(-c3ccccc3CN(C)C)cc12", "label 0"),
    ("O=c1c(-c2ccc(Cl)cc2)nc2cnc(N3CCOCC3)nc2n1C[C@H]1CCCO1", "label 0"),
    ("CN(C)Cc1ccccc1-c1nc(NCc2ccccc2)c2ccccc2n1", "label 0"),
    ("O=c1c(-c2cccs2)nc2cnc(N3CCOCC3)nc2n1Cc1cccs1", "label 0"),
    ("CN(Cc1ccco1)c1ncnc2ccc(-c3cccnc3)cc12", "label 0"),
    ("Cn1cc(-c2nc3cnc(N4CCNCC4)nc3n(CCC#N)c2=O)c2ccccc21", "label 0"),
    ("CN(C)C(=O)c1ccc(-c2cncnc2NCCc2cnc[nH]2)cc1", "label 0"),
    ("COc1ccc(-c2nc3cnc(Nc4cccc(OC)c4)nc3n(C)c2=O)cc1", "label 0"),
    ("COc1ccc(CNc2cc(-c3ccoc3)ncn2)c(OC)c1", "label 0"),
    ("COc1cc2c(cc1OC)C(c1ccccc1)CN(C)CC2 (centres undefined)", "label 0"),
    ("FC(F)(F)c1ccccc1-c1cc(NCCN2CCOCC2)ncn1", "label 0"),
    ("COc1cccc(-c2cncnc2N(C)Cc2ccco2)c1", "label 0"),
    ("O=c1c(-c2cccs2)nc2cncnc2n1Cc1ccccc1", "label 0"),
    ("Cc1nc2cnc(N(C)C)nc2n(CCC#N)c1=O", "label 0"),
    ("Cc1noc(C)c1-c1cc(N(C)C)ncn1", "label 0"),
    ("CN(C)c1ccc(-c2ccc3ncnc(N(C)C)c3c2)cc1", "label 0"),
]

Where do these numbers come from? They come from PubChem BioAssay (NCATS).
